- System: WNK4
- CONDITION_PARAMETERS: concentration: 1 μM, replicates: in singlicate; n = 1;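 further: KINOMEscan kinase panel screen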
OUTCOME_MEASURE: %Inh
Answer format reminder: number followed by unit.

Field: example entries. Status: answers known.
Cl.NS(=O)(=O)c1cccc(Nc2cc(-c3ccc(F)cc3)n[nH]2)c1 : 13%
Nc1nc(-c2ccccc2F)c(-c2ccnc3ccccc23)s1 : 48%

Items follow; give %Inh for each.
1. CCCNC(=O)Nc1ccc(Oc2ncnc3ccn(C)c23)cc1
2. Cc1cc(Nc2nc(-c3cccc(C)n3)nc3ccccc23)ccn1
3. O=C(NCc1cccs1)c1cc(C(=O)c2c(Cl)cccc2Cl)c[nH]1
4. CN1C(=O)C(Nc2cc(Cl)c(O)c(Cl)c2)=C(c2ccc(Cl)cc2)C1=O

(A)
0%
0%
0%
0%

====

- Tested on: MTOR
- CONDITION_PARAMETERS: concentration: 1 μM, replicates: in singlicate; n = 1
For each record, write down the corresponding %Inh.
One number for each entry, in %.

COc1ccc(-n2cnc3c(N)ncnc32)cc1 : 16
COC(=O)c1c(-c2ccccc2)c2cc(Br)ccc2c(=O)n1Cc1ccc(NC(=O)CCC(=O)O)cc1 : 32
Cc1nc(N(C)[C@H]2CN(C(=O)CC#N)CC[C@H]2C)c2cc[nH]c2n1 : 25
CC(C)(C)c1ccc(C(=O)Nc2cn3cc(-c4ccccc4)ccc3n2)cc1 : 45
COc1cc2ncn(-c3cc(OCc4ccc(S(C)(=O)=O)cc4)c(C(N)=O)s3)c2cc1OC : 6

Provide the reported %Inh of each entry below, same order.
1. CCS(=O)c1ccc(-c2coc3ccc(-c4nnc(C)o4)cc23)cc1 (stereo not shown)
2. CCc1nc(-c2cccc(C)c2)c(-c2ccncc2)s1
3. Cc1cccc(-c2nc(Nc3ccc4c(cnn4C)c3)c3ccccc3n2)n1
4. Nc1ncnc2c1ncn2-c1cccc(F)c1
5. COc1cc2nccc(Nc3cccc(Oc4ccccc4)c3)c2cc1OC.Cl

(A)
[2, 34, 0, 14, 15]

====

Provide the reported %Inh of each item.
- System: EGFR
- CONDITION_PARAMETERS: concentration: 1 μM, replicates: in singlicate; n = 1
One number for each entry, in %.

Some compounds with recorded %Inh:
COc1cccc(C2=C(Nc3cccc(C(=O)O)c3)C(=O)NC2=O)c1 : 12
COc1ccc(Nc2nccc(N3CCC(NS(=O)(=O)c4ccc(NC(C)=O)cc4)C3)n2)cc1 (stereo not shown) : 36
O=C(Nc1n[nH]c2nc(-c3ccccc3)c(Cl)cc12)C1CC1 : 14
Nc1ncnc2c1ncn2-c1cccc2ccccc12 : 45
C[C@@H]1CC[C@H](C(=O)NC2CCCCC2)CN1c1cc(-c2ccc3c(N)n[nH]c3c2)nc(N)n1 : 45
Cl.NS(=O)(=O)c1cccc(Nc2cc(-c3ccc(F)cc3)n[nH]2)c1 : 0

Now for a further compound.
(Q) Recorded %Inh for COC(=O)c1c(-c2ccccc2)c2cc(C)ccc2c(=O)n1Cc1ccccc1 with EGFR, please?
(A) 0

====

- System: YSK1
- Construct: gene STK25
- CONDITION_PARAMETERS: concentration: 1 μM, replicates: in singlicate; n = 1
Would you kindly list %Inh for each of these compounds?
Answers are plain numbers, in %.

Here is how some compounds turned out for %Inh.
CCc1nc(-c2cccc(C)c2)c(-c2ccncc2)s1 : 0
COc1cc2nccc(Nc3cccc(Oc4ccccc4)c3)c2cc1OC.Cl : 0
O=C(Nc1ccc2c(c1)OCO2)NC1CCN(c2ccnc(NCc3ccc(F)cc3)n2)CC1 : 0

Quick one: give me %Inh for each item below, same order please.
1. Nc1nccc2scc(-c3ccc4c(c3)CCN4C(=O)Cc3ccccc3)c12
2. CCn1c(-c2nonc2N)nc2ccccc21
3. C[C@@H]1CC[C@H](C(=O)NC2CCCCC2)CN1c1cc(-c2ccc3c(N)n[nH]c3c2)nc(N)n1
4. Cc1cc(Nc2nc(-c3cccc(C)n3)nc3ccccc23)ccn1
5. CCc1ccc(-c2ccc3c(c2)-c2nn(C)cc2S(=O)(=O)N3C)cc1
6. CCS(=O)c1ccc(-c2coc3ccc(-c4nnc(C)o4)cc23)cc1 (stereo not shown)
7. O=C1NC(=O)C(c2ccccc2)=C1Nc1cccc(O)c1

(A)
0
0
24
0
0
0
8

Provenance of the data: paper PMC5540273
